Tested on: K4 kissing-loop RNA reporter
Assay: apparent KD of K4 kissing-loop reporter; higher = weaker reporter binding
Details: Eterna round: R107; input ligand: arginine 13.2 mM
Give y when the value for apparent KD of K4 kissing-loop reporter is at least 200 nM. Give n when it is less.

Hi team, for UGAUCACAGUGAUGUUGUGGCAAAAGUGAUACCAGCCGUGUACGAGGCCCUUGGCAGCACCAGGGCUGUACGUCGUUAGAUCCGG [theeternabot_exclusion_KL_Theo_A_33] , is the recorded apparent KD of K4 kissing-loop reporter at or above 200 nM?
n

Quick check: does CGUGAGUGCCGUCAGUCAUCGGUCCAUGCACGAGGACCGGUACGGCCGCCACUCGAGCGUGGCAGUGAUGUUGCCAGCGCACUAA [KL-XTryp-A12] have apparent KD of K4 kissing-loop reporter greater than or equal to 200 nM?
n

Please tell me: is the sequence UACACGACUCGUGUAAACCGAGGUAACAGGCAGGAUAUGUAACGGAACAGAAGGGCCAUGUUGCGUGUCCAGUGAUGUUGGAUGC [Vetedile] at or over 200 nM in terms of apparent KD of K4 kissing-loop reporter?
y

Could you please find out whether UGUGUUGUUUUGAUGUUUGGUGUUUGUUGGCAGGAUAUCGUAGAGGCGAGAAGGGCUUUGUUGCGGUAUGAGUGAUGUUUGUAGG [szzrmullin] has apparent KD of K4 kissing-loop reporter that meets 200 nM or exceeds it?
n

Reported apparent KD of K4 kissing-loop reporter at or above 200 nM? AAUGUGCAGGGAAGGAGCGUAGUCCAGUGCUGUUGGAGUUAAAUACCAGUGAUGUUGGUUAUACAGGUAGGUCGCCCUAAAGCGC [whbob_Ex_Arginine_B_2th160]
n

Please check the record UUCAUCGUGGUUCACGGGUGGUAUGAAACGCGAGGACCGGUACGGCCGCCACUCGGUUCCGCUUGUUGAGUGAUGUUCAAUAUUU and state if its apparent KD of K4 kissing-loop reporter is at or above 200 nM.
y

Could you verify whether the entry AGAUAGGGCUGAAGGAGCGUCGGAGAAGAGAAGAAGGAAUCCAGUGAUGUUGGAUAAAUCCGACAGGUAGGUCGCAGUUUUAUGA [hbob_SS_Arginine_B_2t138] shows apparent KD of K4 kissing-loop reporter of no less than 200 nM?
n

Does the sequence CGAGUCCUGAGGAGUGAUGUUCCUCGGCCACGAGGACCGGUACGGCCGCCACUCGUUACUCGGGCUUAGUAGCUAGCACUAAGCU [Quedmaon] have recorded apparent KD of K4 kissing-loop reporter that is 200 nM or more?
n

Has AUUAUAUAGGCGGCCGCCACUAGUGAUGUUAGUGACUAUAUGAAAACAUAUAGAAUAAAAUAAUAUAGGACCGGGCCAUAAUAUU [AstrosExTryB#4] a recorded apparent KD of K4 kissing-loop reporter greater than or equal to 200 nM?
y

In plain terms: is recorded apparent KD of K4 kissing-loop reporter at least 200 nM for AAUCGAGUGAUGUUCGAUGUAGUGCAUUCAGAGGAUAUAGGAUGGGCUAGAAGGCUGAAAAGUGCUUCGAGUGAUGUUCGAAGAU [Exclusion FMN A GF 4] ?
n

Hi team, for UUGGAGUGAUGUUCCAUGUCUUGAGCCGAAGGAGCGCCUUUCUAGGCAGGUAGGUCGCGGCAGAAGGUACCAGUGAUGUUGGAAA [Same State Arginine A GF9] , is the recorded apparent KD of K4 kissing-loop reporter at or above 200 nM?
y

Please indicate if the recorded apparent KD of K4 kissing-loop reporter for CUGCCGUGCCAUGGGCCAGUGAUGUUGGAACGAGGACCGGUACGGCCGCCACUCGCUUAGCGUCAAAGGCGUCCCGAAUAGAAAG [theeternabot_exclusion_KL_Trp_A_14] meets or exceeds 200 nM.
y

* * *

Tested on: K4 kissing-loop RNA reporter
Assay: apparent KD of K4 kissing-loop reporter; higher = weaker reporter binding
Details: Eterna round: R107; input ligand: none
Quantity Measured: apparent KD of K4 kissing-loop reporter (nM)
# number only, unit nM dropped from output

Answered cases to consult:
{"Sequence Chain": "CCUAUCUCGUACGAUACCAGACUAUGAUCUUUGAUCAAUGCCAUCACCGAGUGAUGUUCGGUCCCUUGGCAGCGUAUGAGAUGGG [#12 K4 Theophylline B Exclusion]", "apparent KD of K4 kissing-loop reporter, nM": 170}
{"Sequence Chain": "AGUCCACUCUAAAGAGUGGACCUAAGGGAUACCAGUGAUGUUGGUCACCCUUGGCAGCCCUCUGUCAUCGAUAAAGAUGGCAGAA", "apparent KD of K4 kissing-loop reporter, nM": 114}
{"Sequence Chain": "CAAAUAUGCGGUAGGUUCAAGCGCUGGGAAGGAGCGCAGAUGACUGCAGGUAGGUCGCCCAGUGAUGUUGGGCUUUCCACCUAUG [Esisusa]", "apparent KD of K4 kissing-loop reporter, nM": 107}
{"Sequence Chain": "GCAGUGAUGUUGCGCGGGUACGGUAGAGUACGAGGACCGGUACGGCCGCCACUCGUACGGAACUGGCUAAUUUAUGGAAUGGUGA [IV]", "apparent KD of K4 kissing-loop reporter, nM": 313}
{"Sequence Chain": "GGCCAAAGAGAGUGAUGUUCUCAAUAUGAAGGAGCGCCCGAAAGGGCAGGUAGGUCGCAUAACGGCCACCUACGAAAAGUAGGAA [#SwitchBubble 4 #K4Early]", "apparent KD of K4 kissing-loop reporter, nM": 94.5}
{"Sequence Chain": "CCUAUCUCAUACGAUACCAGUCUAUUAAAACGAGUGAUGUUCGAAUAUUUGCCAUAUAAUGACCCUUGGCAGCGUAUGGGAUAGG [Ex Theophylline B K4 9]", "apparent KD of K4 kissing-loop reporter, nM": 244}
{"Sequence Chain": "UUUAUUAAGACGGCCGCCACUGAAUUAGAGUGAUGUUCUAAAAUUACUAAAUUAAAUUUAUUCAACAGGACCGGGUCAAUUAUUA [JR_SSTryptoB_Sub010]", "apparent KD of K4 kissing-loop reporter, nM": 461}
{"Sequence Chain": "AGGCACGAGCAAGGAUAUCGAGUAGAGUGAUGUUCUGCCUGGGUUGGCUCGAAAGAGCCUUCUCAGCGAGAAGGUGCUCGUGCCU [#2 Same State - FMN A Attempt #21 (HarryS)]", "apparent KD of K4 kissing-loop reporter, nM": 982}
{"Sequence Chain": "AGACUACUGACAGGAUAUAACAUACUAGCUCGUAUACCAAAGGUAUACGAGCACCUUCUAGUGAUGUUAGAAGGGUCGGUAGUCA [Omei KL FMN B Exc B v2]", "apparent KD of K4 kissing-loop reporter, nM": 300}
{"Sequence Chain": "AAAAUAAUCCAGUGAUGUUGGUGUCCAGAUACCAGCGACGAAAGUCGCCCUUGGCAGCUGUGGACGUACAAAAUAAGUACGUCCU", "apparent KD of K4 kissing-loop reporter, nM": 559}

Write down apparent KD of K4 kissing-loop reporter measured for item GUACGCUCCCGAGUGAUGUUCGGUAAUCGCUAGGAUAUCGCUUUUGCGAGAAGGAGCGGAAUGAGGAAACUCGUUCUGAGUGUAC [FMN A 26]
350

Determine from records and report apparent KD of K4 kissing-loop reporter for UCUUGCGGCGCAGGAUAUCCGUCUGUCUCCUGCGUCAUUCUGCAGUGAUGUUGCAGGUGACGGAUAGGAGAAGGGCGAACGUACA [Diinonorce]
124

* * *

Tested on: K4 kissing-loop RNA reporter;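 further: bound reporter read as fluorescence of individual clusters on recovered sequencing chips by microscopy, with normalized cluster intensities fitted with a binding model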
Test: apparent KD of K4 kissing-loop reporter; higher = weaker reporter binding
Details: Eterna round: R107; input ligand: FMN 200 uM
Quantity Measured: apparent KD of K4 kissing-loop reporter (nM)
All answers are understood in nM, so give the number only.

Previously resolved entries follow.
{"Sequence Chain": "GGUGCCGGGCAAGGAUAUUAGUCGAGUGAUGUUCGGCGGUCCAAGUCGUUGCGGCGUUAAACCCUUUGAGAAGGUGCCCGGUGCC [#2 Exclusion - FMN B Attempt #1 (HarryS)]", "Unit Descriptor": "nM", "apparent KD of K4 kissing-loop reporter": 198}
{"Sequence Chain": "UUUAUUAAGACGGCCGCCACUGAAUUAGAGUGAUGUUCUAAAAUUACUAAAUUAAAUUUAUUCAACAGGACCGGGUCAAUUAUUA [JR_SSTryptoB_Sub010]", "Unit Descriptor": "nM", "apparent KD of K4 kissing-loop reporter": 399}
{"Sequence Chain": "CGCAGUGAUGUUGCGAAUAUAAUUACGGAAGGAGCGCGUGAAAACGCAGGUAGGUCGCCGUUUGGUAUGAUGGAAACAUCGUACC [Arginine A K4 10]", "Unit Descriptor": "nM", "apparent KD of K4 kissing-loop reporter": 140}
{"Sequence Chain": "GGUAGCAUGGCGGCCGCCACUUCAUAUGGAGUGAUGUUCCAGCAUCUUAUAAGACUGAGGUGAGGAAGGACCGGGCCAUGCUACC", "Unit Descriptor": "nM", "apparent KD of K4 kissing-loop reporter": 635}
{"Sequence Chain": "AAUUUGUAUUUAUUCUUUAAAUGUUCAGAAGGAGCGUGAAUUAUCACAGGUAGGUCGCUGAGCUAGUGAUGUUAGCUAUACACUA [#01 K4 Arginine A Exclusion]", "Unit Descriptor": "nM", "apparent KD of K4 kissing-loop reporter": 98.5}
{"Sequence Chain": "AGGCACGAGCAAGGAUAUCGAGUAGAGUGAUGUUCUGCCUGGGUUGGCUCGAAAGAGCCUUCUCAGCGAGAAGGUGCUCGUGCCU [#2 Same State - FMN A Attempt #21 (HarryS)]", "Unit Descriptor": "nM", "apparent KD of K4 kissing-loop reporter": 248}
{"Sequence Chain": "AAAAUAAAUCAGUGAUGUUGGUAUCCGGAUACCAGCGAUAAUCAUCGCCCUUGGCAGCCGCGGACGUACAAAAUAAGUACGUCCU [MatMod 15 - Jieux - Same State - Theophylline A]", "Unit Descriptor": "nM", "apparent KD of K4 kissing-loop reporter": 282}
{"Sequence Chain": "AGGAUGUAGUGAUGUUAUAUAAAAGGUAAACGAGGACCGGUACGGCCGCCACUCGAAGCGGCUGCUAAGAGGGAAAGAAGAGGAA [ExTryptoA.E]", "Unit Descriptor": "nM", "apparent KD of K4 kissing-loop reporter": 496}
{"Sequence Chain": "GGCACUUUUGGUAGGAACCAUCUACCUCUAUAGGAUAUGCCGAAAGGCAGAAGGAUAGACCUACAGAGUGAUGUUCUGCGUGCCU", "Unit Descriptor": "nM", "apparent KD of K4 kissing-loop reporter": 573}
{"Sequence Chain": "UUUGGAAGCGGUGUUGAUUAGGGAGCGGAAGGAGCGCCGAUUAUGGCAGGUAGGUCGCCGGAAUGUAGUGAUGUUGCAUAGAGGG [ExArgA.W]", "Unit Descriptor": "nM", "apparent KD of K4 kissing-loop reporter": 209}

// Input: GCCAGUGAUGUUGGCGAACCAACGCAUGCAGAGGAUAUUCGUUCUGGAAGAAGGCUGCAGCGUUAUCAAACGCAGUGAUGUUGCG [Same State FMN A GF 26] . Output its apparent KD of K4 kissing-loop reporter only.
179

Return apparent KD of K4 kissing-loop reporter (reported value) for this sequence: AAAAGAAAGUCGGCCGCCACUCAACGCAGUGAUGUUGCAAGACAGAAGAGCAGUGAUGUUGCCCAGAGGACCGGGACACAAGGCC [Same State Typtophan B GF 3]
352
